system: MDA-MB-231 multicell spheroids, viability (%T/C); assay: Anticancer human tumor MDA-MB-231 cell line growth inhibition [IpAb]; details: curve of first compound; second compound 0.0316 µM;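 further: viability read after seven days of drug exposure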
pIC50: −log10 of the molar value.
readoutKind: pIC50

Sample answers from the record:
[
  {
    "compound": "C=CC(=O)N1CCN(c2nc(=O)n(-c3c(C)ccnc3C(C)C)c3nc(-c4c(O)cccc4F)c(F)cc23)C(C)C1 (stereo not drawn) + CCN1CCN(Cc2ccc(Nc3ncc(F)c(-c4cc(F)c5nc(C)n(C(C)C)c5c4)n3)nc2)CC1",
    "pIC50": "< 5.00"
  },
  {
    "compound": "Cn1ncnc1[C@H]1c2n[nH]c(=O)c3cc(F)cc(c23)N[C@@H]1c1ccc(F)cc1 + CCN1CCN(Cc2ccc(Nc3ncc(F)c(-c4cc(F)c5nc(C)n(C(C)C)c5c4)n3)nc2)CC1",
    "pIC50": "< 7.00"
  }
]

Now, please, on to the next compound.
pIC50 for Cn1cnc2c(F)c(Nc3ccc(Br)cc3Cl)c(C(=O)NOCCO)cc21 + CCN1CCN(Cc2ccc(Nc3ncc(F)c(-c4cc(F)c5nc(C)n(C(C)C)c5c4)n3)nc2)CC1 ? > 8.02

Hello, the source for this data is PubChem BioAssay AID2060328, in case you need it.
